Below, each of the compounds is paired with its reported DC50 value.
# measurementTarget: BTK (Homo sapiens)
# Construct: The GM01501.3 cell line endogenously expresses BTK with a HiBiT fusion tag via CRISPR knock-in at its C-terminal region; endogenous in cells; host or cells: GM01501.3 (GM01501 cells engineered by CRISPR knock-in of HiBiT at the BTK locus)
# Sequence (Q06187 whole entry, the tested form may be a part): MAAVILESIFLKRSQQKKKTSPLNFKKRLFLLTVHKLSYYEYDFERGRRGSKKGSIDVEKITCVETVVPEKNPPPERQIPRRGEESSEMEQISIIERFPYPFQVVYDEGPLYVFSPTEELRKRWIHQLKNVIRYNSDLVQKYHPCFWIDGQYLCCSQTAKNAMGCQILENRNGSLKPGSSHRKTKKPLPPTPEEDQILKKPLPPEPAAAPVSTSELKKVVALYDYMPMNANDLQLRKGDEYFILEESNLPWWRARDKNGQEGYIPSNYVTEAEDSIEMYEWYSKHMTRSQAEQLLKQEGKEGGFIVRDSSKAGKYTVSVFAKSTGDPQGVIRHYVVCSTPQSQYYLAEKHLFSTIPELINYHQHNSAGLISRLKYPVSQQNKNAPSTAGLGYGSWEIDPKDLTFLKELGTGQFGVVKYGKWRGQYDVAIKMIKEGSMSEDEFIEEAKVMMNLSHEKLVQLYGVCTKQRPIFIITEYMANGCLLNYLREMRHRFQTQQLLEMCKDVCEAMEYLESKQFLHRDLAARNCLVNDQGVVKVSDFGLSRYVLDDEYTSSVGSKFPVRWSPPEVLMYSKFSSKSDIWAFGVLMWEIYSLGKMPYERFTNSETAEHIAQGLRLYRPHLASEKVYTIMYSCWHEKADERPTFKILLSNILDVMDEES
# assaySummary: BTK degradation assay using the HiBiT Method (Nano-Glo HiBiT Lytic Assay, GM01501.3 cells)
# Type: cell-based
# assaySetup: HiBiT Degradation on GM01501.3 BTK @ 6 hours

Before answering, review these 5 worked examples.
compound: Cc1cc(-c2ncnn3cc(-c4ccc(OCCN5CCC(c6ccc(NC7CCC(=O)NC7=O)cc6)CC5)cc4)cc23)ccc1CNC(=O)c1noc(C(C)(C)C)n1 (stereo not drawn)
DC50: < 100 nM
//
compound: Cc1cc(-c2ncnn3cc(CCCCc4ccc(-c5ccc(C6CCC(=O)NC6=O)cc5)cc4)cc23)ccc1CNC(=O)c1noc(C(C)(C)C)n1 (stereo not drawn)
DC50: 100 to 500 nM
//
compound: CC(C)(C)c1nc(C(=O)NCc2ccc(-c3ncnn4cc(-c5ccc(CN6CCN(Cc7cccc(OC8CCC(=O)NC8=O)c7)CC6)cn5)cc34)cc2F)no1 (stereo not drawn)
DC50: < 100 nM
//
compound: Cc1cc(-c2ncnn3cc(-c4cn(C)c(CN5CCC(c6ccc(C7CCC(=O)NC7=O)cc6)CC5)n4)cc23)ccc1CNC(=O)c1noc(C(C)(C)C)n1 (stereo not drawn)
DC50: < 100 nM
//
compound: CC(C)(C)c1nc(C(=O)NCc2ccc(-c3ncnn4cc(-c5ccc(CN6CCC(c7ccc(NC8CCC(=O)NC8=O)cn7)CC6)c(F)c5)cc34)cc2F)no1 (stereo not drawn)
DC50: < 100 nM

Q: Which DC50 value is on record for Cc1cc(-c2ncnn3cc(CCCCN4CCC(c5ccc6c(N7CCC(=O)NC7=O)nn(C)c6c5)CC4)cc23)ccc1CNC(=O)c1cnn(C(C)(C)C)c1 ?
Result: < 100 nM

* * *

# measurementTarget: BTK (Homo sapiens)
# Construct: The GM01501.3 cell line endogenously expresses BTK with a HiBiT fusion tag via CRISPR knock-in at its C-terminal region; endogenous in cells; host or cells: GM01501.3 (GM01501 cells engineered by CRISPR knock-in of HiBiT at the BTK locus)
# assaySummary: BTK degradation assay using the HiBiT Method (Nano-Glo HiBiT Lytic Assay, GM01501.3 cells)
# Format: cell-based
# assaySetup: HiBiT Degradation on GM01501.3 BTK @ 6 hours
endpointLabel: DC50

compound: CC(C)(C)c1nc(C(=O)NCc2ccc(-c3ncnn4cc(-c5ccc(CN6CCC(c7ccc(C8CCC(=O)NC8=O)cc7)CC6)cc5)cc34)cc2F)no1 (stereo not drawn) [Example 42]
DC50: < 100 nM

compound: Cc1cc(-c2ncnn3cc(-c4ccc(CCN5CCC(c6ccc(NC7CCC(=O)NC7=O)cc6)CC5)cc4)cc23)ccc1CNC(=O)c1noc(C(C)(C)C)n1 (stereo not drawn) [Example 53]
DC50: < 100 nM

Turning now to a further compound:
Q: Requested read-out: DC50. Entry: Cn1nc(N2CCC(=O)NC2=O)c2ccc(C3CCN(Cc4ccc(-c5cc6c(-c7ccc(CNC(=O)c8noc(C(C)(C)C)n8)c(F)c7)ncnn6c5)nc4)CC3)cc21 [Example 243]
Result: < 100 nM

Every entry's value here was drawn from patent US20240287076A1.
